The origin of these recorded values is PubChem BioAssay (EPA / NIEHS).

assay_details: TOX21_p53_BLA_p4_viability: Viability Assessment in the Tox21 HCT-116 p53 Agonism Beta-lactamase Assay, Phase 4 (AID 2283597);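 note: hits lower the luminescence signal meaning cytotoxicity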
Inconclusive results are not listed. Activity calls are given as the source filed them. Rule for the calls: active = hit-call score of the fitted dose curve at least 0.9, where 1 is the maximum; inconclusive = response in the unintended direction; inactive = score below 0.9.
Select the correct class. Options are active, inactive and nothing else.

Per the assay record, what outcome was assigned to CC(C)CCCCCCOC(=O)c1ccccc1C(=O)OCCCCCCC(C)C ?
inactive

Per the assay record, what outcome was assigned to NNC(=S)NN ?
inactive

Per the assay record, what outcome was assigned to CCNc1nc(NC(C)(C)C)nc(SC)n1 ?
inactive

Per the assay record, what outcome was assigned to CC(C)(C)c1cc(O)ccc1O ?
inactive

Per the assay record, what outcome was assigned to COc1ccccc1OC ?
inactive

Per the assay record, what outcome was assigned to O=[N+]([O-])c1ccc(O)c([N+](=O)[O-])c1 ?
inactive

Per the assay record, what outcome was assigned to CCOP(=S)(OCC)SCSP(=S)(OCC)OCC ?
inactive

Per the assay record, what outcome was assigned to ClCc1ccccn1 ?
inactive

Per the assay record, what outcome was assigned to O=c1[nH]c(=O)[nH]c(=O)[nH]1 ?
inactive

Per the assay record, what outcome was assigned to Nc1ccc(-c2ccc(N)c(Cl)c2)cc1Cl ?
inactive

Per the assay record, what outcome was assigned to C=C(C)C(=O)[O][Sn]([CH2]CCC)([CH2]CCC)[CH2]CCC ?
active

Per the assay record, what outcome was assigned to N#Cc1ccccn1 ?
inactive

Per the assay record, what outcome was assigned to CCCCOCCOC(C)=O ?
inactive

Per the assay record, what outcome was assigned to COc1cc(-c2ccc(N)c(OC)c2)ccc1N ?
inactive

Per the assay record, what outcome was assigned to Clc1nc(Cl)nc(Cl)n1 ?
inactive

Per the assay record, what outcome was assigned to CC(C)c1cccc(C(C)C)c1O ?
inactive

Per the assay record, what outcome was assigned to CC(C)c1ccc(CO)cc1 ?
inactive

Per the assay record, what outcome was assigned to CC(Br)C(=O)O (centres undefined) ?
inactive

Per the assay record, what outcome was assigned to CC(=O)C(Cl)C(=O)N(C)C (centres undefined) ?
inactive

Per the assay record, what outcome was assigned to Clc1ccc(C2(Cn3cncn3)CC(Br)CO2)c(Cl)c1 (centres undefined) ?
inactive

Per the assay record, what outcome was assigned to O=C(O)C(F)(F)C(F)(F)C(F)(F)C(F)(F)C(F)(F)C(F)(F)F ?
inactive

Per the assay record, what outcome was assigned to Cc1ccccc1C(=O)Nc1cccc(OC(C)C)c1 ?
inactive

Per the assay record, what outcome was assigned to C[C@]12CCC(=O)C[C@@H]1CC[C@@H]1[C@@H]2CC[C@]2(C)[C@@H](O)CC[C@@H]12 ?
inactive

Per the assay record, what outcome was assigned to CC(=O)OC(c1ccccc1)C(Cl)(Cl)Cl (centres undefined) ?
inactive

Per the assay record, what outcome was assigned to C=CC(=O)OCCCCCC(C)C ?
inactive

Per the assay record, what outcome was assigned to CCCCCCCCSC(=O)Oc1cc(Cl)nnc1-c1ccccc1 ?
inactive

Per the assay record, what outcome was assigned to COP(=O)(OC)O/C(=C\Cl)c1cc(Cl)c(Cl)cc1Cl ?
inactive

Per the assay record, what outcome was assigned to COP(=S)(OC)Oc1cc(Cl)c(Cl)cc1Cl ?
inactive

Per the assay record, what outcome was assigned to CC(C)C1CCC(Cc2ccc(Cl)cc2)C1(O)Cn1cncn1 (centres undefined) ?
active

----------
measured_target: Transcription factor E2F1 (Homo sapiens)
assay_details: ATG_E2F_CIS: Attagene CIS-FACTORIAL HepG2 Assay for human E2F Transcription Factor 1 (AID 2282935)
measurement_parameters: HepG2 Attagene cis-reporter, E2F reporter RNA transcripts; actives raise or lower the signal
Calls of active or inactive are those of the source. The calls were made as follows: active = hit-call score of the fitted dose curve at least 0.9, where 1 is the maximum; inactive = score below 0.9.
Select the correct class. Options are class 1 for active, class 0 for inactive and nothing else.

Per the assay record, what outcome was assigned to COC[C@H](C)N(C(=O)CCl)c1c(C)csc1C ?
class 0

Per the assay record, what outcome was assigned to O=C(O)C(F)(F)C(F)(F)C(F)(F)C(F)(F)C(F)(F)C(F)(F)F ?
class 0

Per the assay record, what outcome was assigned to O=C(OC1CCCCC1)c1ccccc1C(=O)OC1CCCCC1 ?
class 1

Per the assay record, what outcome was assigned to C=CCc1ccc(OC)cc1 ?
class 0

Per the assay record, what outcome was assigned to Clc1ccc(C2(Cn3cncn3)CC(Br)CO2)c(Cl)c1 (stereo not drawn) ?
class 0

Per the assay record, what outcome was assigned to CCc1ccccc1N ?
class 0

Per the assay record, what outcome was assigned to CC(C#N)CCC#N (stereo not drawn) ?
class 0

Per the assay record, what outcome was assigned to CCOC(=O)CP(=O)(OCC)OCC ?
class 0

Per the assay record, what outcome was assigned to NC(=S)Nc1ccccc1 ?
class 0

Per the assay record, what outcome was assigned to CN(C)N=O ?
class 0

Per the assay record, what outcome was assigned to CCCCCCCCC(=O)NCc1ccc(O)c(OC)c1 ?
class 0

Per the assay record, what outcome was assigned to CC(C)(c1ccccc1)c1ccc(O)c(C(C)(C)c2ccccc2)c1 ?
class 0

Per the assay record, what outcome was assigned to C1CCC(NC2CCCCC2)CC1 ?
class 0

Per the assay record, what outcome was assigned to C[C@H]1CCCC(=O)CCC/C=C/c2cc(O)cc(O)c2C(=O)O1 ?
class 0

Per the assay record, what outcome was assigned to CCC(=O)c1ccccc1 ?
class 0

Per the assay record, what outcome was assigned to O=C(O)Cc1ccccc1 ?
class 0

Per the assay record, what outcome was assigned to CCCCC(CC)CO[N+](=O)[O-] (stereo not drawn) ?
class 0

Per the assay record, what outcome was assigned to CCOP(=S)(OCC)SCCS(=O)(=O)CC ?
class 0

----------
Read-out: Decorin, DCN (gene 1634)
assay_details: BSK_MyoF_Decorin: BioMAP Diversity Plus: MyoF Assay for Decorin Biomarker Activity (AID 2284265)
measurement_parameters: primary human lung fibroblasts
Active and inactive are the calls of the source. The calls were made as follows: active = hit-call score of the fitted dose curve at least 0.9, where 1 is the maximum; inactive = score below 0.9.
Select the correct class. Options are yes (active), no (inactive) and nothing else.

Per the assay record, what outcome was assigned to BrCCBr ?
no

Per the assay record, what outcome was assigned to COP(=S)(OC)Oc1ccc(Sc2ccc(OP(=S)(OC)OC)cc2)cc1 ?
no

Per the assay record, what outcome was assigned to COc1cc(OC)nc(NC(=O)NS(=O)(=O)c2ncccc2C(=O)N(C)C)n1 ?
no

Per the assay record, what outcome was assigned to O=S(=O)(c1ccc(Cl)cc1)c1ccc(Cl)cc1 ?
no

Per the assay record, what outcome was assigned to O=C(O)CCC(F)(C(F)(F)F)C(F)(F)F ?
no

Per the assay record, what outcome was assigned to O=C(OC1CCCCC1)c1ccccc1C(=O)OC1CCCCC1 ?
no

Per the assay record, what outcome was assigned to CCOP(=S)(OCC)Oc1ccc(S(C)=O)cc1 (configuration not stated) ?
no

Per the assay record, what outcome was assigned to CC(C)CCCCCCOC(=O)c1ccccc1C(=O)OCCCCCCC(C)C ?
no

Per the assay record, what outcome was assigned to COP(=S)(OC)Oc1c(Cl)cc(C)cc1Cl ?
no

Per the assay record, what outcome was assigned to CCOC(=O)/C=C(C)/C=C/C[C@@H](C)CCCC(C)C ?
yes

Per the assay record, what outcome was assigned to CCSC(C)CC1CC(=O)C(C(CC)=NOC/C=C/Cl)=C(O)C1 (configuration not stated) ?
no

Per the assay record, what outcome was assigned to O=[N+]([O-])c1ccc2c3c(cccc13)CC2 ?
no

Per the assay record, what outcome was assigned to CCNc1nc(NC(C)(C)C)nc(SC)n1 ?
no

Per the assay record, what outcome was assigned to ClC(Cl)=C(Cl)C(Cl)=C(Cl)Cl ?
no

Per the assay record, what outcome was assigned to NC(=S)Nc1ccccc1 ?
no

Per the assay record, what outcome was assigned to C(=NC1CCCCC1)=NC1CCCCC1 ?
no

Per the assay record, what outcome was assigned to COP(=S)(OC)Oc1ccc(S(=O)(=O)N(C)C)cc1 ?
no

Per the assay record, what outcome was assigned to COP(=S)(OC)Oc1cc(Cl)c(Cl)cc1Cl ?
no

Per the assay record, what outcome was assigned to Nc1ncc([N+](=O)[O-])s1 ?
no

Per the assay record, what outcome was assigned to CC1(C)Cc2cccc(O)c2O1 ?
no

Per the assay record, what outcome was assigned to CCCCC(CC)CO[N+](=O)[O-] (configuration not stated) ?
no

Per the assay record, what outcome was assigned to CC(=O)C(Cl)C(=O)N(C)C (configuration not stated) ?
no

----------
Read-out: CD40, CD40 (gene 958)
assay_details: BSK_SAg_CD40: BioMAP Diversity Plus: SAg Assay for CD40 Biomarker Activity (AID 2283088)
measurement_parameters: primary human HUVEC with PBMC; actives raise or lower the signal
Method: BSK_SAg is a cell-based, multiplexed-readout assay that uses umbilical vein endothelium and peripheral blood mononuclear cells, a human vascular primary cell co-culture, with measurements taken at 24 hours after chemical dosing in a 96-well plate.BSK_SAg_CD40 is one of 10 assay component(s) measured or calculated from the BSK_SAg assay. […] This assay endpoint, BSK_SAg_CD40, was analyzed with bidirectional fitting relative to DMSO as the negative control and baseline of activity. […]
Activity calls are given as the source filed them. Rule for the calls: active = hit-call score of the fitted dose curve at least 0.9, where 1 is the maximum; inactive = score below 0.9.
recorded_endpoint: AC50

The following molecules have reported results that may help.
CC(C)c1ccc(CO)cc1; inactive
CC(C)CCCCCCOC(=O)c1ccccc1C(=O)OCCCCCCC(C)C; inactive
C=CC(=O)OCCCCCC(C)C; inactive
O=[N+]([O-])c1ccc(O)c([N+](=O)[O-])c1; inactive
Cc1ccccc1N; inactive

State the recorded AC50 for this entry: BrCCBr
inactive

State the recorded AC50 for this entry: CCOP(=S)(OCC)Oc1ccc(S(C)=O)cc1 (stereo not given)
inactive

State the recorded AC50 for this entry: COP(=S)(OC)Oc1c(Cl)cc(C)cc1Cl
inactive

State the recorded AC50 for this entry: Cn1sc(Cl)cc1=O
26.4 µM (active)
